Can you tell me pEC50 for the items I'm about to list?
biological target: PRMT5-MEP50 enzyme complex (Homo sapiens); construct: 1.25 nM of Full-length (FL)-PRMT5-MEP50 enzyme complex; made in house; host or cells: baculovirus-transfected Sf21 cells; test: PRMT5-MEP50 Enzyme Methylation Assay; format: biochemical; conditions: single EC50 from 4 parameters single site sigmoidal model, or first EC50 of 7 parameters biphasic model; 1.0 nM PRMT5-MEP50, H4R3(Me1) peptide, SAM; read-out: Enzyme Methylation Assay (EC50 or EC50_1)
Sequence (O14744 whole entry): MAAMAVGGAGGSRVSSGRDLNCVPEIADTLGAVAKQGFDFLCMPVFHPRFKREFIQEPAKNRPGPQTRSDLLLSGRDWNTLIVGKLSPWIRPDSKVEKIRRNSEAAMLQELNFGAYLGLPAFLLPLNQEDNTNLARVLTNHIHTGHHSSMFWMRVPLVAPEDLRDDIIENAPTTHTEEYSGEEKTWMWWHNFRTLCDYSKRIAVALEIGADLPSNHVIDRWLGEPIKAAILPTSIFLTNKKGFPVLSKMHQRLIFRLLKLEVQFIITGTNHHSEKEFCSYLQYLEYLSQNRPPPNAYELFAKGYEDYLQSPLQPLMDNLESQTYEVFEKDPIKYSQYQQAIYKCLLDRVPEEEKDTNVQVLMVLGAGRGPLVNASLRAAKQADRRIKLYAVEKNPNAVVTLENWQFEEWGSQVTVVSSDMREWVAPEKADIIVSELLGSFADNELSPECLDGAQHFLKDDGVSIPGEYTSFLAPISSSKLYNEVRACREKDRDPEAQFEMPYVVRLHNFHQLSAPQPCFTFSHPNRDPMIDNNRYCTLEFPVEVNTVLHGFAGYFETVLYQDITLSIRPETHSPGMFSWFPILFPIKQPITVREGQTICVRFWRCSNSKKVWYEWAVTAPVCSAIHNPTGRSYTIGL
Sequence (Q9BQA1 whole entry partner): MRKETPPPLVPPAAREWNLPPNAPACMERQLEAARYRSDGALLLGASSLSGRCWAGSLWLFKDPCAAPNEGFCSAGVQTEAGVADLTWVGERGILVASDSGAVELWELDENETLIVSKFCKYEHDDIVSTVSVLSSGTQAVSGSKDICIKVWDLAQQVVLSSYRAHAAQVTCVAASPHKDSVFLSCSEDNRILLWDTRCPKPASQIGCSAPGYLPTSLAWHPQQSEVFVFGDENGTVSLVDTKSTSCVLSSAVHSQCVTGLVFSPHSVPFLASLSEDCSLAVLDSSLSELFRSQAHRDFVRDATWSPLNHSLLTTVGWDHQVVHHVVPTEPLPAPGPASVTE
Counter-ions that a name gives are not always drawn.
Numbers only, as −log10 of the molar value.

Some solved entries appear below for comparison.
compound: Cc1cc2ccc(CC[C@H]3S[C@@H](n4ccc5c(C)ncnc54)[C@H](O)[C@@H]3O)cc2nc1N (single isomer, unassigned)
pEC50: 9.15
--
compound: Cc1ncnc2c1ccn2[C@@H]1S[C@H](COc2ccc3ccc(NCC4CC4)nc3c2)[C@@H](O)[C@H]1O
pEC50: 7.85
--
compound: Nc1nc2cc(CC[C@@H]3S[C@@H](n4ccc5c(N)ncnc54)[C@H](O)[C@@H]3O)ccc2cc1Br
pEC50: 9.52
--
compound: Nc1nc2cc(CC[C@H]3S[C@@H](n4ccc5c(N)ncnc54)[C@H](O)[C@@H]3O)ccc2cc1Br
pEC50: 9.15
--
compound: Cc1ncnc2c1ccn2[C@@H]1S[C@@H](CCc2ccc3cc(C(F)(F)F)c(N)nc3c2)[C@@H](O)[C@H]1O
pEC50: 8.13

Batch request: pEC50 per item, same order as input.
1. Cc1cc2ccc(CC[C@@H]3S[C@@H](n4ccc5c(C)ncnc54)[C@H](O)[C@@H]3O)cc2nc1N (single isomer, unassigned)
2. Nc1ccc2ccc(CC[C@H]3S[C@@H](n4ccc5c(N)ncnc54)[C@H](O)[C@@H]3O)cc2n1 [Example 14, TFA salt]
3. Nc1ccc2ccc(CC[C@@H]3S[C@@H](n4ccc5c(N)ncnc54)[C@H](O)[C@@H]3O)cc2n1
4. C[C@]1(CCc2ccc3cc(Br)c(N)nc3c2)S[C@@H](n2ccc3c(N)ncnc32)[C@H](O)[C@@H]1O
5. Cc1ncnc2c1ccn2[C@@H]1SC(CCc2ccc3ccc(NCC(F)F)nc3c2)[C@@H](O)[C@H]1O (stereo in doubt)
6. Cc1ncnc2c1ccn2[C@@H]1S[C@H](CCc2ccc3cc(C(F)(F)F)c(N)nc3c2)[C@@H](O)[C@H]1O

1. 9.22
2. 9.52
3. 9.05
4. 9.52
5. 7.32
6. 9.15

----------
molecular target: PRMT5-MEP50 enzyme complex (Homo sapiens); construct: 1.25 nM of Full-length (FL)-PRMT5-MEP50 enzyme complex; made in house; host or cells: baculovirus-transfected Sf21 cells; experiment: PRMT5-MEP50 Enzyme Methylation Assay; type: biochemical; conditions: second EC50 of 7 parameters biphasic model; read-out: Enzyme Methylation Assay (EC50_2)
Threshold check on EC50: strictly below 100 nM is rule met; on or above 100 nM is rule not met.

compound: CNc1ncnc2c1ccn2[C@@H]1S[C@H](CCc2ccc3cc(Br)c(N)nc3c2)[C@@H](O)[C@H]1O
class-name: rule met
//
compound: Cc1ncnc2c1ccn2[C@@H]1S[C@H](CCc2ccc3cc(C(F)(F)F)c(N)nc3c2)[C@@H](O)[C@H]1O
class-name: rule not met
//
compound: Cc1ncnc2c1ccn2[C@@H]1S[C@@H](CCc2ccc3cc(Br)c(N)nc3c2)[C@@H](O)[C@H]1O
class-name: rule met
//
compound: Nc1nc2cc(CC[C@H]3S[C@@H](n4cc(F)c5c(N)ncnc54)[C@H](O)[C@@H]3O)ccc2cc1Br
class-name: rule met
//
compound: Cc1ncnc2c1ccn2[C@@H]1S[C@H](COc2ccc3ccc(NCC4CC4)nc3c2)[C@@H](O)[C@H]1O
class-name: rule not met
//
compound: Nc1ccc2ccc(OC[C@H]3S[C@@H](n4ccc5c(N)ncnc54)[C@H](O)[C@@H]3O)cc2n1
class-name: rule met

Quick check: does Nc1nc2cc(OC[C@H]3S[C@@H](n4ccc5c(N)ncnc54)[C@H](O)[C@@H]3O)ccc2cc1Br have EC50 under 100 nM? rule met

Quick check: does Nc1nc2cc(OC[C@H]3S[C@@H](n4ccc5c(N)ncnc54)[C@H](O)[C@@H]3O)ccc2cc1F have EC50 under 100 nM? rule not met
